Test system: XIP peptide (Xip251-270) binding
Assay: small-molecule binders of XIP peptide, primary screen, biochemical, small-molecule microarray, fluorescence 635/667 nm, 0.1 µg/mL protein (AID 1182)
Settings: fluorescent protein binding, 635 nm, higher = more signal, called active from +8 up or from −8 down
Respond with YES for composite z-score values of 0.8 and above, NO for values below.

compound=NCCCCCNC(=O)[C@@H]1C[C@@H]2C(=O)N3CCC[C@H]3C(=O)N2[C@@H]1c1ccc(O)cc1 class=NO
compound=C=C(/C(=C/C[C@@H](OC(C)=O)c1ccc(CO)o1)c1cc(C(=O)OC)ccc1OC)C(C)C class=NO
compound="CC=CC(O)C1C=CC2C(=O)NC(=O)C2N1Nc1ccccn1 (stereo not given)" class=YES
compound=C=C(COC)C(=O)CC[C@H](OC(=O)c1cccnc1)c1ccc(CO)o1 class=NO
compound=CCCCC(=O)N(CCN1CCOCC1)[C@@H]1CC(C(=O)NCCO)=C[C@H](Oc2c(I)cc(CO)cc2OC)[C@H]1O class=NO

This collection of values is drawn from PubChem BioAssay.
